System: MDA-MB-468 breast
Assay: NCI tumour cell line growth inhibition, 48 h
readout-label: TGI (µM)
Answers are plain numbers, in µM.

compound-string	value-reported
Cc1ccc(-c2cc(C(=O)N=Nc3c(O)[nH]c4ccccc34)c3ccccc3n2)cc1	15.4

API: the following record is the query input.
Give TGI (MDA-MB-468 breast) of the following molecule: CN(C)Cc1c(C(=O)NCCOc2ccc(C(=O)NO)cc2)oc2ccccc12
2.36

---

System: MOLT-4 leukemia
Assay: NCI tumour cell line growth inhibition, 48 h
Exercise: for every item that follows, state its recorded GI50.

The following compounds have reported results that may help.
compound	GI50
COc1ccccc1[C@H]1C(C(=O)c2ccc(O)cc2)C2(N[C@@H]1c1ccccc1)C(=O)Nc1ccc(Br)cc12 (stereo not given in full)	4.42 µM
C/C(=N\N=C1/C(=O)Nc2ccc(Cl)cc21)c1ccc2c(c1)Nc1ccccc1S2	2.71 µM
CS(=O)(=O)Nc1cncc(-c2ccc3ncnc(NCc4ccccc4)c3c2)c1	5.53 µM
CCCCSc1nc(Nc2ccc(/C(C)=N/NC(N)=S)cc2)c(C#N)c(-c2ccc(F)cc2)n1	3.63 µM

API: the following record is the query input.
Can you look up the measured GI50 of COc1ccc2ccccc2c1/C=C1\SC(=Nc2ccc(O)cc2)NC1=O for me?
1.51 µM

---

Tested on: MDA-MB-468 breast
Experiment: NCI tumour cell line growth inhibition, 48 h; in the data active = GI50 below about 0.43 µM; inactive = the rest
Would you mind answering with one of these outcomes? active, inactive

compound	assayed-target	category
Cc1cccc(Cl)c1NC(=O)c1cnc(Nc2cc(N3CCOCC3)cc(S(C)(=O)=O)c2)s1	MDA-MB-468 breast	inactive
NC(=O)c1cc(Br)ccc1NC(=O)/C=C/c1ccccc1	MDA-MB-468 breast	inactive
Cc1ccc(OCCOCCOCCOCCOCCOc2ccc(C)n(O)c2=S)c(=S)n1O	MDA-MB-468 breast	active
C=CCOC(=O)Nc1cccn([C@H](CC(C)C)C(=O)NCCC(C)C)c1=O	MDA-MB-468 breast	inactive

Now for a further compound.
For this compound, state the assay outcome: C=C1CC2C3C=C(C)C4=CC(=O)CC[C@]4(C)C3CC[C@]2(C)[C@@]1(OC(C)=O)C(C)=O (stereo not given in full)
inactive

---

System: K-562 leukemia
Assay: NCI tumour cell line growth inhibition, 48 h; in the data active = GI50 below about 0.43 µM; inactive = the rest
Would you mind answering with one of these outcomes? active, inactive

// known answers, use as guide
compound	assayed-target	category
C/C(=N\N=C1/C(=O)Nc2ccc(Cl)cc21)c1ccc2c(c1)Nc1ccccc1S2	K-562 leukemia	inactive
CS(=O)(=O)Nc1cncc(-c2ccc3ncnc(NCc4ccccc4)c3c2)c1	K-562 leukemia	inactive
Cc1ccc(-c2cc(C(=O)N=Nc3c(O)[nH]c4ccccc34)c3ccccc3n2)cc1	K-562 leukemia	inactive
CCCCSc1nc(Nc2ccc(/C(C)=N/NC(N)=S)cc2)c(C#N)c(-c2ccc(F)cc2)n1	K-562 leukemia	inactive
COc1ccc2ccccc2c1/C=C1\SC(=Nc2ccc(O)cc2)NC1=O	K-562 leukemia	active

Now for a further compound.
For this compound, state the assay outcome: COc1ccccc1[C@H]1C(C(=O)c2ccc(O)cc2)C2(N[C@@H]1c1ccccc1)C(=O)Nc1ccc(Br)cc12 (stereo partly specified)
inactive

---

System: SW-620 colon
Assay: NCI tumour cell line growth inhibition, 48 h
Exercise: for every item that follows, state its recorded GI50.

The following molecules have reported results that may help.
compound-string	value-reported
C/C(=N\N=C1/C(=O)Nc2ccc(Cl)cc21)c1ccc2c(c1)Nc1ccccc1S2	5.56 µM
CCCCSc1nc(Nc2ccc(/C(C)=N/NC(N)=S)cc2)c(C#N)c(-c2ccc(F)cc2)n1	2.7 µM
Cc1ccc(-c2cc(C(=O)N=Nc3c(O)[nH]c4ccccc34)c3ccccc3n2)cc1	6.07 µM
CS(=O)(=O)Nc1cncc(-c2ccc3ncnc(NCc4ccccc4)c3c2)c1	17.1 µM

API: the following record is the query input.
Can you look up the measured GI50 of COc1ccc2ccccc2c1/C=C1\SC(=Nc2ccc(O)cc2)NC1=O for me?
0.437 µM

---

Test system: OVCAR-4 ovarian
Test: NCI tumour cell line growth inhibition, 48 h
readout-label: TGI (µM)
One number for each entry, in µM.

// for each compound below, give its TGI
1. Cc1ccc(-c2cc(C(=O)N=Nc3c(O)[nH]c4ccccc34)c3ccccc3n2)cc1
2. CCCCSc1nc(Nc2ccc(/C(C)=N/NC(N)=S)cc2)c(C#N)c(-c2ccc(F)cc2)n1
3. C/C(=N\N=C1/C(=O)Nc2ccc(Cl)cc21)c1ccc2c(c1)Nc1ccccc1S2

1: 26.6; 2: 85.5; 3: 22.5

Can you look up the measured TGI of CS(=O)(=O)Nc1cncc(-c2ccc3ncnc(NCc4ccccc4)c3c2)c1 for me?
50.2

---

Exercise: for every item that follows, state its recorded GI50.
System: SNB-75 CNS
Assay: NCI tumour cell line growth inhibition, 48 h

compound	assayed-target	value-reported
COc1ccccc1[C@H]1C(C(=O)c2ccc(O)cc2)C2(N[C@@H]1c1ccccc1)C(=O)Nc1ccc(Br)cc12 (some centres undefined)	SNB-75 CNS	5.98 µM
Cc1ccc(-c2cc(C(=O)N=Nc3c(O)[nH]c4ccccc34)c3ccccc3n2)cc1	SNB-75 CNS	2.54 µM
CCCCSc1nc(Nc2ccc(/C(C)=N/NC(N)=S)cc2)c(C#N)c(-c2ccc(F)cc2)n1	SNB-75 CNS	1.6 µM

Give GI50 (SNB-75 CNS) of the following compound: CS(=O)(=O)Nc1cncc(-c2ccc3ncnc(NCc4ccccc4)c3c2)c1
6.7 µM

---

System: HOP-92 NSCLC
Assay: NCI tumour cell line growth inhibition, 48 h
Exercise: for every item that follows, state its recorded GI50.

molecule	GI50
CS(=O)(=O)Nc1cncc(-c2ccc3ncnc(NCc4ccccc4)c3c2)c1	3.92 µM
C/C(=N\N=C1/C(=O)Nc2ccc(Cl)cc21)c1ccc2c(c1)Nc1ccccc1S2	2.92 µM
COc1ccc2ccccc2c1/C=C1\SC(=Nc2ccc(O)cc2)NC1=O	2.05 µM

Can you look up the measured GI50 of COc1ccccc1[C@H]1C(C(=O)c2ccc(O)cc2)C2(N[C@@H]1c1ccccc1)C(=O)Nc1ccc(Br)cc12 (some centres undefined) for me?
6.52 µM

---

Test system: CCRF-CEM leukemia
Assay: NCI tumour cell line growth inhibition, 48 h
Exercise: for every item that follows, state its recorded GI50.

compound-string	assayed-target	value-reported
CS(=O)(=O)Nc1cncc(-c2ccc3ncnc(NCc4ccccc4)c3c2)c1	CCRF-CEM leukemia	4580 nM

// for each molecule below, give its GI50
1. Cc1ccc(-c2cc(C(=O)N=Nc3c(O)[nH]c4ccccc34)c3ccccc3n2)cc1
2. CCCCSc1nc(Nc2ccc(/C(C)=N/NC(N)=S)cc2)c(C#N)c(-c2ccc(F)cc2)n1
3. COc1ccc2ccccc2c1/C=C1\SC(=Nc2ccc(O)cc2)NC1=O

1: 4730 nM; 2: 814 nM; 3: 651 nM

---

Exercise: for every item that follows, state its recorded TGI.
System: MDA-MB-468 breast
Assay: NCI tumour cell line growth inhibition, 48 h

The following compounds have reported results that may help.
compound	TGI
NCCSC(c1ccccc1)(c1ccccc1)c1ccccc1	1.63 µM
COc1ccc2c(c1)C(c1cc(OC)c3c(c1)OCO3)C1=C(COC1=O)N2 (centres undefined)	0.849 µM
COc1ccccc1[C@H]1C(C(=O)c2ccc(O)cc2)C2(N[C@@H]1c1ccccc1)C(=O)Nc1ccc(Br)cc12 (some centres undefined)	8.66 µM
NC(=O)n1c(=O)n(-c2cccc(C(F)(F)F)c2)c(=O)c2cc(-c3ccc(F)cc3F)ccc21	5.83 µM
CN(C)C=Nc1c(I)cc(I)c(CCC(=O)O)c1I	> 100 µM

// for each compound below, give its TGI
1. Cc1[nH]nc2ncc(C(=O)N3CCC[C@H]3c3ccc(Cl)cc3)cc12
2. CCCN(CCC)c1ccc(C=O)c(C)c1
3. CC(=O)N[C@@H](Cc1ccc(OP(=O)(O)O)cc1)C(=O)N[C@H]1CCC(=O)N2CCC[C@@H](C(=O)NCc3ccccc3)N2C1=O
4. COc1ccc(Cn2cc3c(c2-c2cc(OC)c(OC)c(OC)c2)CCc2c(CO)noc2-3)cc1
5. CCNCCNc1cc(-c2ccc(C(F)(F)F)cc2)c(C#N)c2nc3cc(Cl)c(Cl)cc3n12
6. Oc1ccccc1/C=N\NC(=S)N/N=C/c1ccccc1O
7. COc1ccc(-c2[nH]nc(N)c2-c2cc(OC)c(OC)c(OC)c2)cc1
8. C=C1C(=O)O[C@H]2[C@H]1CC/C(CNC(=O)/C=C/c1ccccc1F)=C\CC[C@@]1(C)O[C@@H]21

> 100 µM
32.5 µM
> 25 µM
18.9 µM
3.39 µM
30.5 µM
6.23 µM
1.96 µM

Can you look up the measured TGI of O=C(O)c1cn(C2CC2)c2cc(N3CCN(Cc4c(O)ccc5ccccc45)CC3)c(F)cc2c1=O for me?
> 100 µM
